Tested on: K562
Test: NCI tumour cell line growth inhibition, 48 h
Calls of active or inactive are those of the source. Cut-off read from the data, not from the text of the source: active = GI50 up to about 1.1 µM and inactive = higher.
Outcome field: choose from YES for active, NO for inactive

{"columns": ["Molecule", "Label"],
 "data": [
  ["Cc1nnc2c3c(-c4ccccc4)c(-c4ccccc4)oc3nc(N(C)C)n12", "NO"],
  ["CCOP(=O)(OCC)/C(C#N)=C/c1ccc(-c2cc(C(F)(F)F)cc(C(F)(F)F)c2)o1", "NO"],
  ["Nc1nnc2n1C(=O)C(C1(C3=Nc4nnc(N)n4C3=O)Cc3ccccc3C1=O)=N2", "NO"],
  ["CCN(CC)C(=S)SC(=S)N(CC)CC", "NO"],
  ["CCOC(=O)c1sc2ncnc(N)c2c1C", "NO"]
]}

Record request — test call for CN(C)c1ccc(C(N)=O)cn1
NO

For CCOP(=O)(OCC)C(Cc1ccc(Cl)cc1)NS(=O)(=O)c1ccc(C)cc1 (configuration not stated) , what call appears in the results of this test?
NO

What outcome does the record of this test show for CCCNC(=S)N/N=C1\C(=O)Nc2ccccc21 ?
NO

Which outcome was assigned to N#Cc1c(Cl)nc2ccccc2c1N=[N+]=[N-] in this test?
YES

What was the test verdict on O=C1C2=C(CC3C(C2)C3(Br)Br)C(=O)C2=C1CC1C(C2)C1(Br)Br (configuration not stated) ?
NO

Fill in: this test's call for Cc1cc(NC(=O)C(=O)Cc2cnc3ccccc3n2)c(S(=O)(=O)O)cc1Cl is ___
NO

Record lookup: outcome of this test for COc1ccc(C(CC(C)=O)c2c(O)c3ccccc3oc2=O)cc1OC (configuration not stated) ?
NO

Called result for OCCN1CCN(CC/C=C2/c3ccccc3Sc3ccc(Cl)cc32)CC1
NO

Entry O=c1c2ccccc2nc2n1CCc1c-2[nH]c2ccccc12 : call = ?
NO

In this assay, the call recorded for Cc1cc2nc3c(=O)n(C)c(=O)nc-3n(-c3ccc(Cl)cc3)c2cc1C was what?
NO

Please state the recorded outcome for this molecule: O=c1oc2ccccc2cc1-c1ccc([N+](=O)[O-])cc1
NO

====

Test system: UO-31
Assay: NCI tumour cell line growth inhibition, 48 h
Activity calls are given as the source filed them. No stated cut-off is given here; in the data, active = GI50 up to about 1.1 µM and inactive = higher.
# key: entry, value: GI50

{"columns": ["Compound", "GI50"],
 "data": [
  ["C1=Nc2ccccc2Cn2nncc21", "89.1 µM (inactive)"],
  ["CC(=O)NCCC1CNc2ccccc21 (configuration not stated)", "> 100 µM (inactive)"],
  ["COc1ccc(-c2onc(-c3ccc([N+](=O)[O-])cc3)c2C2=NCCCN2)cc1", "18.4 µM (inactive)"],
  ["CCC(C#N)NC(=O)NC(C#N)CC (configuration not stated)", "58.5 µM (inactive)"],
  ["N[C@H]1CCCC[C@@H]1N1C(=O)c2ccccc2C1(O)c1ccc(Cl)cc1 (some centres not stated)", "11.6 µM (inactive)"]
]}

Please list GI50 recorded for the compound COc1ccc(-c2cc(-c3ccc(O)cc3O)c(C#N)c(=O)[nH]2)cc1
34.4 µM (inactive)

Tell me its GI50 given COc1cc2c(cc1OCCCCCOc1cc3c(cc1OC)C(=O)N1CCC[C@H]1CN3)N=C[C@@H]1CCCN1C2=O as the entry.
12.3 µM (inactive)

In one line, give reported GI50 of the entry Cc1cc2c(cc1O)CC[C@@H]1[C@@H]2CC[C@]2(C)[C@@H](O)CC[C@@H]12 .
14.8 µM (inactive)

Provide GI50 value for the following compound: O=C(NCCCN1CCN(CCCNC(=O)Nc2cc(Cl)ccc2Cl)CC1)Nc1cc(Cl)ccc1Cl
> 100 µM (inactive)

Identify GI50 associated with the compound CCOC(=O)/C(C(=O)c1ccc[nH]1)=C1/CCCN1C
> 100 µM (inactive)

====

Listed next: entries and their corresponding GI50.
Tested on: M14
Assay: NCI tumour cell line growth inhibition, 48 h
Active and inactive are the calls of the source. Rule as the data show it: active = GI50 up to about 1.1 µM and inactive = higher.

{"columns": ["Compound", "GI50"],
 "data": [
  ["N#CC(c1ccccc1)(c1ccccc1)[C@@H](c1ccccc1)[C@H](Cc1ccccc1)NS(=O)(=O)c1ccccc1", "> 100 µM (inactive)"],
  ["COC(=O)[C@H](Cc1c[nH]c2ccccc12)NC(=O)c1ccc(CNC(=O)/C(C)=C/c2ccccc2)cc1", "15.9 µM (inactive)"],
  ["CCCCCCCCCC[C@@H](O)[C@H]1CC[C@H]([C@H]2CC[C@H]([C@H](O)CCCCCCCCCC[C@@H]3CC(CC(C)=O)C(=O)O3)O2)O1 (some centres undefined)", "26.3 µM (inactive)"],
  ["N#CC1(C#N)NC(c2ccccc2)C(C#N)(C#N)NC1c1ccccc1 (centres undefined)", "> 100 µM (inactive)"],
  ["COc1ccc(Cn2nc(OCc3ccccn3)c3cc([N+](=O)[O-])ccc32)cc1", "> 100 µM (inactive)"]
]}

State measured GI50 of the compound CSc1ccc(/C=C2\N=C(c3ccccc3)N(/N=C3\C(=O)Nc4ccccc43)C2=O)cc1 with M14.
> 100 µM (inactive)

Identify measured GI50 obtained with M14 for CC1(C)OC2C(CO)OC(n3ccc(N)nc3=O)C2O1 (centres undefined) .
> 100 µM (inactive)

Find GI50 for CCOP(=O)(OCC)C(NC(=O)OCC(Cl)(Cl)Cl)n1nnc(C(=O)OC)c1C(=O)OC (centres undefined) on M14 and write it down.
> 100 µM (inactive)

Consider the compound Cc1cc(NC(=O)C(=O)Cc2cnc3ccccc3n2)c(S(=O)(=O)O)cc1Cl tested on M14; state its GI50.
> 100 µM (inactive)

System M14. Read-out GI50. Item Cc1ccc(S(=O)(=O)NC(=O)NC(CC(=O)O)C(=O)O)cc1 (centres undefined) . Report value.
> 100 µM (inactive)

State GI50 (M14) of CCCCc1c2c(nc3c1CCCC3=O)C(=O)CCC2 .
> 100 µM (inactive)

// fetch GI50; item: CCC(=O)NCCc1c2c3c(ccnc3c3ncsc13)-c1ccccc1N2 [KUANONIAMINE C] ; system: M14
2.73 µM (inactive)

Report GI50 from M14 testing of O=C(NCCCCNCCCNC(=O)c1ccccc1)c1ccccc1
> 100 µM (inactive)

Print M14 GI50 for CC1=CCC2CC1NC(=O)CCOCCC(=O)NC2(C)C (centres undefined) .
> 100 µM (inactive)

State measured GI50 of the compound C[C@]1(CO)CCC[C@@]2(C)C1CC[C@H]1CC3C[C@]12CC[C@]3(C)O (some centres undefined) with M14.
> 100 µM (inactive)

Report the value of GI50 obtained on M14 for CC1=C(C(=O)NCc2ccccc2)C(c2ccc(C3C(C(=O)NCc4ccccc4)=C(C)NC(C)=C3C(=O)NCc3ccccc3)cc2)C(C(=O)NCc2ccccc2)=C(C)N1 .
11.8 µM (inactive)

Under M14: report GI50 of Nc1ncnc2c1ncn2C1OC(CO)C(O)C1N (centres undefined) .
> 100 µM (inactive)

Report its GI50 with M14 as the test system: c1ccc2c(c1)[C@@H]1O[C@@H]1[C@@]13O[C@@]21[C@H]1O[C@H]1c1ccccc13
15.6 µM (inactive)

Supply GI50 measured with M14 for Cc1ccc(NC(=O)CC/C(CC(=O)C(C)(C)C)=N/Nc2nnc(C)n2N)cc1C .
> 100 µM (inactive)

====

System: PC-3
Assay: NCI tumour cell line growth inhibition, 48 h
Activity calls are given as the source filed them. Cut-off read from the data, not from the text of the source: active = GI50 up to about 1.1 µM and inactive = higher.
Measured GI50 by item

Look over these answered cases.
{"columns": ["Molecule", "Observation Type", "Reported Measurement"],
 "data": [
  ["COc1cccc2c3cccc(OC)c3c3[nH]cnc3c12", "GI50", "2.03 µM (inactive)"],
  ["Cn1c(Nc2ccccc2)c(/C=N\\c2ccccc2)c(=O)n(C)c1=O", "GI50", "> 100 µM (inactive)"],
  ["CN(C)CCCN1c2ccccc2Sc2cnccc21", "GI50", "> 100 µM (inactive)"]
]}

# input for lookup
Specify reported GI50 for the molecule shown: O=C1CCCCCCCCCCC1CN1CCOCC1 (stereo unspecified)
> 100 µM (inactive)

====

System: SW-620
Test: NCI tumour cell line growth inhibition, 48 h
The source made the active and inactive calls. No stated cut-off is given here; in the data, active = GI50 up to about 1.1 µM and inactive = higher.
Pick from true (1) (active), false (0) (inactive) when you respond.

{"columns": ["Compound", "Label"],
 "data": [
  ["CC[N+]1(C)CCC(O)(c2ccc(OC)cc2)C(C(=O)c2ccc(OC)cc2)C1 (stereo not given)", "false (0)"],
  ["O=C1c2ccccc2C2CCC1c1ccccc12 (stereo not given)", "false (0)"],
  ["Nc1ccn(C2CCC(CO)O2)c(=S)n1 (stereo not given)", "false (0)"],
  ["COc1cc2c(cc1O)[C@@]1(Cc3ccc(OC)c(OC)c3)CCC(=O)N1CC2", "false (0)"]
]}

Hi team, can someone confirm the assay call for CC(=O)OCc1cc(=O)n(C)c2c3c4c(cc12)c(C)cc(=O)n4CO3 ?
true (1)

Just curious, what result did Nc1ccccc1C#CC(=O)c1cccc(C(F)(F)F)c1 get here?
false (0)

Please share the test call associated with CC(C)Cc1cc(CCC(=O)Nc2ccccc2[N+](=O)[O-])nc(NC#N)n1 .
false (0)

Returns: the outcome recorded for c1ccc(C(NC2CCCCC2NCCNC2CCCCC2NC(c2ccccc2)(c2ccccc2)c2ccccc2)(c2ccccc2)c2ccccc2)cc1 (stereo not given) in this assay.
false (0)

I'd appreciate the recorded outcome for CCOC(=O)c1ccc(/N=N\c2ccc(N(CCC#N)CCC#N)cc2C)cc1 from this test.
false (0)

Test call for this compound, please: Oc1cc(-c2cccc(OC(F)(F)F)c2)nc2cc3c(cc12)OCO3
true (1)
